- Test system: bedstraw
- PROTOCOL SUMMARY: Test B pre/postemergence bedstraw
- Assay type: in vivo, Galium aparine
- CONDITION PARAMETERS: Preemergence, Rate 250 g/ha; scale of 0 to 10 where 0 is no effect and 10 is complete control
Recorded measurements of Bedstraw plant response rating, one per entry
The answer should be a number; do not append a unit.

Some solved entries appear below for comparison.
[[record]]
compound = "CCOC(=O)C(C)N(C(=O)n1oc(=O)n(CC)c1=O)c1ccc(F)cc1 (stereo not shown)"
measured_number = 0

[[record]]
compound = "CCN(C(=O)n1oc(=O)n(Cc2ccco2)c1=O)C1CCCCC1"
measured_number = 0

[[record]]
compound = "CC(C)N(C(=O)n1oc(=O)n(C2CCCC2)c1=O)c1ccccc1"
measured_number = 1

[[record]]
compound = "Cc1ccccc1-n1c(=O)on(C(=O)N(c2ccc(Cl)cc2)C(C)C2CC2)c1=O (stereo not shown)"
measured_number = 0


Return reported Bedstraw plant response rating; argument: CC(C)N(C(=O)n1oc(=O)n(C[Si](C)(C)C)c1=O)c1ccc(F)cc1
0

Recorded Bedstraw plant response rating for COC(=O)Cn1c(=O)on(C(=O)N(c2ccc(F)cc2)C(C)C)c1=O , please?
0

Bedstraw plant response rating lookup needed for CC(C)N(C(=O)n1oc(=O)n(C2CCCO2)c1=O)c1ccc(F)cc1 (stereo not shown) , thanks.
0
